Molecular target: human APJ receptor (Homo sapiens (Human))
Sequence (P35414 whole entry): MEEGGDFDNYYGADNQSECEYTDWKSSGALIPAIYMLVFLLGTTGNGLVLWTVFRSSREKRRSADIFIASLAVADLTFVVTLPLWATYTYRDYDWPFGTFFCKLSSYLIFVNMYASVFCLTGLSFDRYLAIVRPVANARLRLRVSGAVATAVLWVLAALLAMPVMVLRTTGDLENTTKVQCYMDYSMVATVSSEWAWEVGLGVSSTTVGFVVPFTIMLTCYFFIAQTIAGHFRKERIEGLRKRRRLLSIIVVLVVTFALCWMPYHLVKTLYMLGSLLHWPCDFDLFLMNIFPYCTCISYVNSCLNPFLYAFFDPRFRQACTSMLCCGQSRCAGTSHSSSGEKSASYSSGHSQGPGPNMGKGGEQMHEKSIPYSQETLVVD
Experiment: Intracellular cAMP accumulation assay (APJ hcAMP, HTRF)
Type: cell-based
Conditions: HEK293 cells stably expressing human APJ receptor; inhibition of forskolin-mediated cAMP production; read-out: hAPJ cAMP EC50 Potency range
Procedure: Intracellular cAMP Accumulation Assay HEK293 cells stably expressing human APJ receptor were used to assess the activity of compounds. Cultured cells were detached and resuspended in the cAMP Homogeneous Time-Resolved Fluorescence (HTRF) assay buffer (Cisbio cat; #62AM4PEJ). The assay was performed in 384-well assay plates (Perkin-Elmer; cat #6008289) according to assay protocol provided by the manufacturer. […] The fluorescence emission ratio was measured using fluorometer. […]
pEC50: −log10 of the molar value.
// reported pEC50 for each item listed

CCCCc1nc(O)c(-c2nnc(Cc3ccc(F)c(F)c3)o2)c(O)c1C1=CCCCC1; 7.00 to 8.00
CCCCc1nc(O)c(-c2nnc(CCc3nc(-c4cnccn4)no3)o2)c(O)c1-c1c(OC)cccc1OC; 8.00 to 11.00
CCCCc1nc(O)c(-c2nnc(Cc3ccc(Cl)cc3)o2)c(O)c1-c1c(OC)cccc1OC; 8.00 to 11.00
CCCCc1nc(O)c(-c2nnc(Cc3nc(-c4ccccn4)no3)o2)c(O)c1-c1c(OC)cccc1OC; 8.00 to 11.00
CCCCc1nc(O)c(-c2nnc(Cc3nonc3C)o2)c(O)c1-c1c(OC)cccc1OC; 8.00 to 11.00
CCCCc1nc(O)c(-c2nnc(CCc3ccc(C(F)(F)F)cc3)o2)c(O)c1-c1c(OC)cccc1OC; 7.00 to 8.00
CCCCc1nc(O)c(-c2nnc(CC(=O)NCCF)o2)c(O)c1-c1c(OC)cccc1OC; 8.00 to 11.00
CCCCc1nc(O)c(-c2nnc(Cc3ccccc3Cl)o2)c(O)c1-c1c(OC)cccc1OC; 7.00 to 8.00
CCCCc1nc(O)c(-c2nnc(COc3ccc(Cl)c(Cl)c3)o2)c(O)c1-c1c(OC)cccc1OC; 7.00 to 8.00
CCCCc1nc(O)c(-c2nnc(COc3ccc(F)cc3)o2)c(O)c1-c1c(OC)cccc1OC; 7.00 to 8.00

Incoming: # get_value(readout= pEC50, system= human APJ receptor (Homo sapiens (Human))) for "CCCCc1nc(O)c(-c2nnc(Cc3ccc(Cl)cc3)o2)c(O)c1-c1c(Cl)cccc1Cl"
Outgoing: 7.00 to 8.00

Incoming: Give pEC50 (human APJ receptor (Homo sapiens (Human))) of the following compound: "CCCCc1nc(O)c(-c2nc(Cc3ccc(Cl)cc3)no2)c(O)c1-c1c(OC)cccc1OC"
Outgoing: 7.00 to 8.00

Incoming: Value wanted: pEC50 (human APJ receptor (Homo sapiens (Human))) of entry "CCCCc1nc(O)c(-c2nnc(-c3cccc(Cl)c3)o2)c(O)c1-c1c(OC)cccc1OC"
Outgoing: 7.00 to 8.00

---

target: human APJ receptor (Homo sapiens (Human)); assay: Intracellular cAMP accumulation assay (APJ hcAMP, HTRF); type: cell-based; details: HEK293 cells stably expressing human APJ receptor; inhibition of forskolin-mediated cAMP production; read-out: hAPJ cAMP EC50 Potency range
This section presents compounds with their documented EC50 values.

Some compounds with known EC50 results, for comparison:
CCCCc1nc(O)c(-c2nnc(C(C)c3ccc(Cl)cc3)o2)c(O)c1-c1c(OC)cccc1OC (centres unmarked); 0.01 to 10 nM
CCCCc1nc(O)c(-c2nnc(CCc3ccc(Cl)c(Cl)c3)o2)c(O)c1-c1c(OC)cccc1OC; 10 to 100 nM

Incoming: Which EC50 value belongs to "CCOCc1nc(O)c(-c2nnc(Cc3ccc(F)cc3)o2)c(O)c1-c1c(OC)cccc1OC" ?
Outgoing: 0.01 to 10 nM

Incoming: Quick one: EC50 of "CCCCc1nc(O)c(-c2nnc(CCc3ncccn3)o2)c(O)c1-c1c(OC)cccc1OC" ?
Outgoing: 0.01 to 10 nM

Incoming: What value of measured EC50 is listed for "CCCCc1nc(O)c(-c2nnc(CNC(=O)c3cccnc3)o2)c(O)c1-c1c(OC)cccc1OC" ?
Outgoing: 0.01 to 10 nM

Incoming: Quick one: EC50 of "CCCCc1nc(O)c(-c2nnc(CC(N)=O)o2)c(O)c1-c1c(OC)cccc1OC" ?
Outgoing: 10 to 100 nM

Numbers sourced from patent US10336739B2.
